- assay_target: T1, cyno PD-1, full length, on CHO-K1 cells (cyno monkey, UniProt B0LAJ3 25-288)
- T1 construct: also called CHO-K1-cPD-1; cPD-1
- T1 sequence (B0LAJ3 entry or part of it limits assumed): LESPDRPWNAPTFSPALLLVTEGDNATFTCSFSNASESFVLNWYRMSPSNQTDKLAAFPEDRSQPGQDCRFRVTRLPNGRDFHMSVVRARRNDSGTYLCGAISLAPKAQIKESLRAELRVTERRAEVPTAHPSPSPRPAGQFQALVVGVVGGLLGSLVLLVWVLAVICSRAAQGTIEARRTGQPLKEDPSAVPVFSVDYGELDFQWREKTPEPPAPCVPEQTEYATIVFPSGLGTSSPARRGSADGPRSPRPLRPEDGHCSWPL
- test_summary: flow cytometry on CHO-K1-cPD-1 cells
Each entry below carries its recorded MFI at 10 nM.
Respond numerically; units are MFI and should not be typed.

Consider the reported MFI at 10 nM for these binders:
binder | MFI at 10 nM (MFI)
chimeric anti-PD-1 antibody 32B5C7 (antibody, V domains shown) VH: EVQLLESGGGLVQPGGSLRLSCAASGFTFSSYAMSWVRQAPGKGLEWVSTISGSGGTTYYADSVKGRFTISRDNSKNTLYLQMNSLRAEDTAVYYCTLTGDPDYWGQGTLVTVSS VL: EIVLTQSPATLSLSPGERATLSCRASQSVSSYLAWYQQKPGQAPRLLIYDASKRATGIPARFSGSGSGTDFTLTISSLEPEDFAVYYCQQRNNWPLTFGGGTKVEIK | 174
chimeric anti-PD-1 antibody 223G6B5 (antibody, V domains shown) VH: QVQLQESGPGLVKPSETLSLTCAVSGHSIRGSYFWGWIRQPPGRGLEWIGSIYHSGSTYTNPSLKSRATISVDTSKNQFSLKLNSVTAADTAVYYCARDLDIATTRDYWGQGTLVTVSS VL: DIQLTQSPSFLSASVGDRVTIICRASQGINNYLAWYQQKPGKAPKLLIYAASTLQSGVPSRFSGSGSGTEFTLTISSLQPEDFATYYCQQLDSYPRTFGQGTKVEIKR | 2120
chimeric anti-PD-1 antibody 76G5B3 (antibody, V domains shown) VH: QVQLVESGGGVVQPGRSLRLSCAASGFTFSDYGFHWVRQAPGKGLEWVAVIWYDGSNEYYTDSVKGRFTISRDNSKNTLYLQMNSLRAEDTAMYFCVVNPFDYWGQGTLVTVSS VL: DIQMTQSPSSLSAFVGDRVTITCRASQGINHYLAWYQQKPGKAPNLLILAASTLLSGVPSRFGGRGSGTDFTLIISSLQPEDVATYYCQKYDSAPYTFGQGTKLEIK | 326
chimeric anti-PD-1 antibody 21G8F11 (antibody, V domains shown) VH: EVQLLESGGGLAQPGGSLRLSCAASGFSFNTYLMHWVRQAPGKGLEWVSAISGGGGNTYYADSVKGRFTISRDNSKNTLYLQMNSLRAEDTAVYYCAKENRIPVAPFDYWGQGTLVTVSS VL: DIQMTQSPSTLSASVGDRVTITCRASQSISTWLAWYQQKPGKAPKLLIYKASSLESGVPSRFSGSGSGTEFTLTISSLQPDDLATYYCQQYNSFSWTFGQGTKVEIK | 773

Next up:
Task: Fill in: MFI at 10 nM of chimeric anti-PD-1 antibody 226C3A7 (antibody, V domains shown) VH: QVQLQQSGPGLVNPSQTLSLTCAISGDSVSSNSGAWNWIRQSPSRGLEWLGRTYYRSKWYNDYGISVQSRITINPDTSKNHFSLQLNSVTPEDTAVYYCARDPYYYGSGSYFDYWGQGTLVTVSS VL: EIVMTQSPATLSVSPGERVTLSCRASLSVNSNLAWYQQKPGQAPRLLIYDTSTRATGVPARFSGSGSGTEFTLTISSLQSEDFAVYYCQQYHYWPLTFGGGTKVEIK is ___
Output: 221
